Test system: SNB-19
Test: NCI tumour cell line growth inhibition, 48 h
Calls of active or inactive are those of the source. Rule as the data show it: active = GI50 up to about 1.1 µM and inactive = higher.
Field: GI50. Provide a value for each of the compounds that follow.

## Task Enter measured GI50, system SNB-19, for the compound shown: `COc1ccc2cc3nc(O)cc(O)c3cc2c1OC`
## Result > 100 µM (inactive)

## Task Jot down GI50 (SNB-19) of `O=C(NOC(=O)c1ccc([N+](=O)[O-])cc1)c1ccc(Cl)cc1` .
## Result > 100 µM (inactive)

## Task Fill in GI50 for CC(C)CC1C(=O)NCCC(NC(=O)C(N)Cc2ccc(O)cc2)C(=O)NC(Cc2ccccc2)C(=O)NC(Cc2ccccc2)NC1=O (stereo not given) tested with SNB-19.
## Result > 100 µM (inactive)

## Task Find the measured GI50 of OC(C1=C/C(=C\c2ccncc2)c2ccccc21)c1ccncc1 (stereo not given) with SNB-19 as test system.
## Result 19.1 µM (inactive)

## Task Provide the reported GI50 (system: SNB-19) for CN(C)CCOc1cc2c(c3ccccc13)-c1ccccc1C2O (stereo not given)
## Result 8.28 µM (inactive)

---

Tested on: K562
Experiment: NCI tumour cell line growth inhibition, 48 h
Calls of active or inactive are those of the source. No stated cut-off is given here; in the data, active = GI50 up to about 1.1 µM and inactive = higher.
Could you please report measured GI50 for the items listed next?

## Task Quote GI50 reported for `COc1c(N2CCCCC2)c2c(=O)c3ccccc3oc2c2c3ccccc3n(C)c12` please.
## Result 58.2 µM (inactive)

## Task Name the recorded GI50 of the compound listed here: `Cc1ccc(S(=O)(=O)NCCSS(=O)(=O)c2ccc(C)cc2)cc1`
## Result 30.7 µM (inactive)

## Task Return GI50 (reported value) for this compound: C[C@@H](NC1CCCC[C@H]1O)c1ccccc1 (some centres undefined)
## Result > 100 µM (inactive)

## Task Tell me GI50 reported for `c1ccc(NCn2cnc3ccccc32)cc1`
## Result 20.8 µM (inactive)

## Task Identify GI50 associated with the compound NC(=O)C12C3C4C1C1C2C3C41C(N)=O (centres undefined)
## Result > 100 µM (inactive)

## Task Retrieve GI50 measured for `CN(CCO)c1nc2c(c(=O)[nH]1)CNCC2` and print it.
## Result > 100 µM (inactive)

## Task In one line, give reported GI50 of the entry CCC1c2[nH]c3ccccc3c2C[C@H]2C(=O)NC(Cc3ccccc3)C(=O)N12 (some centres undefined) .
## Result 31.4 µM (inactive)

## Task Note GI50 for the compound shown: `Cc1nc2ccc(F)cc2c(Cl)c1CCCl`
## Result 25.8 µM (inactive)

## Task Recall and state the measured GI50 for COC1CC(n2cnc3c(N)ncnc32)OC1CO (centres undefined) .
## Result > 100 µM (inactive)

## Task State its GI50 for this compound: `COc1cc(C(=O)N(C(=S)OC23CC4CC(CC(C4)C2)C3)c2ccccc2)cc(OC)c1OC`
## Result 2.75 µM (inactive)

## Task Provide one value: measured GI50 of `CC[C@@H]1CC[C@@H]2[C@H](CC[C@]3(C)[C@@H](O)CC[C@@H]23)[C@H]1CO`
## Result 51.1 µM (inactive)

## Task Return GI50 for the following compound: `COc1cccc(OCC(=N/NC(=O)c2ccncc2)/N=C/c2cccnc2)c1`
## Result > 100 µM (inactive)

## Task Answer with the recorded GI50 of `COc1ccccc1C(=O)N(Cc1ccccc1)c1ccc(Cl)c(C(=O)OC(C)C)c1` only.
## Result 6.89 µM (inactive)

## Task Quickly give me recorded GI50 for O=C(CC(=O)C1CCOC1=O)C(=O)Nc1ccc(Cl)cc1 (centres undefined)
## Result > 100 µM (inactive)
